Data provenance is patent US20220332795A1.

Target or test system: human serum albumin (human) (UniProt P02768)
Sequence (P02768 25-609 limits assumed): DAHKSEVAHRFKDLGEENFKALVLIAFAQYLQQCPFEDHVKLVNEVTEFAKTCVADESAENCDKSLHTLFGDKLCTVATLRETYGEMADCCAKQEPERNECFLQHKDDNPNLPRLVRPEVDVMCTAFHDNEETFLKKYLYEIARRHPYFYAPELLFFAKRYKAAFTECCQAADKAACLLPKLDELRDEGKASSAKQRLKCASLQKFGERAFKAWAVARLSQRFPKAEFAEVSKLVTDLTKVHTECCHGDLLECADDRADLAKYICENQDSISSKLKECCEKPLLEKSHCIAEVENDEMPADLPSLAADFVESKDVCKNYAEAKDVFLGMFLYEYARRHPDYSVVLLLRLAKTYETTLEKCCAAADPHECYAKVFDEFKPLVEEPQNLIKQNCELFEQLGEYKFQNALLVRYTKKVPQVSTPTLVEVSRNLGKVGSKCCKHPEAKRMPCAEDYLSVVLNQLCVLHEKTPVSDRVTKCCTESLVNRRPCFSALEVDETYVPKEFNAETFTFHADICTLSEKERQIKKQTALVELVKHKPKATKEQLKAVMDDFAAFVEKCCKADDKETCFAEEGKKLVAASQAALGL
Test method notes: primary solution ELISA screen
Measured log10 of RLU of individual entries
Assay metric: log10 of RLU (log10 of the value in RLU)

{"columns": ["Binder", "log10 of RLU"],
 "data": [
  ["SEQ ID NO 102 (designed binder, not shown: small tags and cut ends) MLPAPKNLVVSRVTEDSARLSWQGVARAFDSFLITYREQIFAGEVIVLTVPGSERSYDLTGLKPGTEYPVWIQGVKGGSPSAPLSAEFTT", 4.60],
  ["SEQ ID NO 12 (designed binder, not shown: small tags and cut ends) MLPAPKNLVVSRVTEDSARLSWTAPDAAFDSFFIPYAEPSPTGEAIVLTVPGSERSYDLTGLKPGTEYSVLIHGVKGGHLSDPLSAISTT", 4.69],
  ["SEQ ID NO 90 (designed binder, not shown: small tags and cut ends) MLPAPKNLVVSRVTEDSARLSWQGVARAFDSFLITYREQIFAGEVIVLTVPGSERSYDLTGLKPGTEYPVWIQGVKGGSPSAEFTT", 4.09],
  ["SEQ ID NO 50 (designed binder, not shown: small tags and cut ends) MSLPAPKNLVVSRVTEDSARLSWTAPDAAFDSFTIHYREFQLSGEAIVLTVPGSERSYDLTGLKPGTEYDVPIEGVKGGPGSRPLSAIFTT", 4.20],
  ["SEQ ID NO 71 (designed binder, not shown: small tags and cut ends) MLPAPKNLVVSRVTEDSARLSWTAPDAAFDSFPISYLELSLYGEAIVLTVPGSERSYDLTGLKPGTEYPVGIAGVKGGVVSRPLSAIFTT", 4.44],
  ["SEQ ID NO 93 (designed binder, not shown: small tags and cut ends) MLPAPKNLVVSRVTEDSARLSWTAPDAAFDSFAIEYYEPVPAGEAIYLDVPGSERSYDLTGLKPGTEYDVTIYGVKGGYYSHPLFASFTT", 3.68],
  ["SEQ ID NO 47 (designed binder, not shown: small tags and cut ends) MLPAPKNLVVSRVTEDSARLSWTAPDAAFDSFGIVYLEMMVTGEAIVLTVPGSERSYDLTGLKPGTEYDVPILGVKGGTRSVPLSAIFTT", 4.31],
  ["SEQ ID NO 74 (designed binder, not shown: small tags and cut ends) MLPAPKNLVVSRVTEDSARLSWTAPDAAFDSFSITYLEWWNLGEAIVLTVPGSERSYDLTGLKPGTEYMVTIPGVKGGMSSYPLSAIFTT", 4.16],
  ["SEQ ID NO 78 (designed binder, not shown: small tags and cut ends) MLPAPKNLVVSRVTEDSARLSWTAPDAAFDSFGIGYYEHKRFGEAIQLSVPGSERSYDLTGLKPGTEYEVDIEGVKGGVLSWPLFAEFTT", 3.97]
]}
